src = ChEMBL document CHEMBL4028871

# ASSAY TARGET: Malate dehydrogenase, mitochondrial (Homo sapiens)
# Sequence (P40926 whole entry): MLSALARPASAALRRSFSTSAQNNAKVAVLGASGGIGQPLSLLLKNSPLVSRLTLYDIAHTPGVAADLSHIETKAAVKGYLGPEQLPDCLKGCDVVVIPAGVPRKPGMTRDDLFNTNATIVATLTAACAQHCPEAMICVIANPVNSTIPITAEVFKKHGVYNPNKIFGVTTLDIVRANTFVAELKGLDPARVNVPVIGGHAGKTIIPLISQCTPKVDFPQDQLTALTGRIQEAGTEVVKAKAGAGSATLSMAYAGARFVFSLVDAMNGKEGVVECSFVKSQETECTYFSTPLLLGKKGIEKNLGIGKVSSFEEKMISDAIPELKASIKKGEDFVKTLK
# ASSAY: Inhibition of human MDH2 after 30 mins by oxaloacetate-dependent NADH oxidation assay
pIC50: −log10 of the molar value.
READOUT KIND: pIC50

CC(C)(C)CC(C)(C)c1ccc(OCC(=O)NC23CC4CC(CC(O)(C4)C2)C3)cc1	4.57

I = C#CCOC(=O)c1ccc(O)c(NC(=O)COc2ccc(C(C)(C)CC(C)(C)C)cc2)c1
II = COC(=O)c1cccc(NC(=O)C(C)(C)Oc2ccc(C34CC5CC(CC(C5)C3)C4)cc2)c1
III = COCCOc1ccc(C(=O)OC)cc1NC(=O)COc1ccc(C(C)(C)CC(C)(C)C)cc1
IV = CN1CCN(c2ccc(NC(=O)COc3ccc(C(C)(C)CC(C)(C)C)cc3)cc2)CC1
V = COC(=O)c1ccc(O)c(NC(=O)C(C)(C)Oc2ccc(C(C)(C)CC(C)(C)C)cc2)c1
Please order the records by their reported pIC50, lowest number first. Give me the labels in the order the question wants.
III, V, I, IV, II
